# test_system: SNX27, Q96L92
# assay_text: holdup assay
# Parameters: key: below the threshold = too weak to quantify, mostly under pKd 3.1 to 4
# stated_conditions: plain residues with an end cap or a label only (N-terminal biotin on a linker: ado-ado)
measured_quantity: pKd
One number for each entry.

Recorded results for 10 binders are shown here.
| binder | obs_value |
| --- | --- |
| THHRKIHTRV [ZNF599, Q96NL3] | 4.31 |
| SGDGKTSVWI [GJC1, P36383] | 3.56 |
| HLSTRQGTCV [ATRNL1, Q5VV63] | 4.05 |
| NNMAFETTHF [SLC5A12, Q1EHB4] | 5.62 |
| QKNKDREYYV [NRXN3, Q9HDB5] | 3.64 |
| KIEDVEITLV [FCHSD2, O94868] | 5.01 |
| STYCDYTIEI [FAM71C, Q8NEG0] | 3.56 |
| PDSYHRRDFW [U2AF2, P26368] | 3.61 |
| TKDKVQETQI [LRRC4, Q9HBW1] | 5.5 |
| EPAKETTTNV [SLC2A3, P11169] | 4.95 |

Please report pKd for every entry that follows.
1. DSEEELPTRL [GRK6, P43250]
2. VISSDDLTEL [CAPN6, Q9Y6Q1]
3. EAVTVESTSL [SLC22A11, Q9NSA0]
4. KKTPVSRSHL [SLC22A3, O75751]
5. WAKEKQHTRL [SLC17A1, Q14916]
6. HDDYFYHDEL [RCN2, Q14257]
7. RDYTQSSSSL [GRM5, P41594]
8. SAGADSETHC [SLCO1B1, Q9Y6L6]

Result:
1. 3.85
2. 4.17
3. 5.41
4. 3.65
5. 4.28
6. 3.77
7. 4.25
8. 4.65

Please report pKd for every entry that follows.
1. SQDPKKPSRV [CBY2, Q8NA61]
2. TNSKQGETTV [FZD1, Q9UP38]

Result:
1: 3.67; 2: 5.5
